runDescription: NCI Yeast Anticancer Drug Screen. Data for the mlh1 rad18 strain (AID 175)
conditionParameters: S. cerevisiae mlh1 rad18 strain growth inhibition; at 5.0 µM (retest, dose inferred, filed as 0.5); stronger effect = higher value
Method: Growth inhibition of yeast strains with defined genetic alterations is measured as a screen for potential anti-cancer activity. Selected strains with alterations in DNA damage repair or cell cycle control were exposed to compounds and growth inhibition was measured relative to vehicle treated controls. The strain used in this assay is mlh1 rad18
Compounds without any hit were thinned out: in the full panel of roughly 79,000, 15% have a hit.
measuredEndpoint: growth inhibition (%)
Numbers only, in %.

Below, each entry is followed by its recorded growth inhibition result.
                                   compound   measuredendpoint  readoutvalue
0  CC(=O)N(C(C)=O)C1=C2c3ccccc3N(S(=O)(=O)c3ccccc3)C2n2c(=O)n(-c3ccccc3)c(=O)n2C1 (configuration not stated)  growth inhibition           -10
1        C/C=C/CSc1cc(NC(=S)c2ccsc2C)ccc1Cl  growth inhibition             6
2  CCCCOC(=O)C(=O)/C(=C/N1C(=O)/C(=C/C(C)=C/c2ccccc2)SC1=S)C(=O)C=C(C)C  growth inhibition             1
3                     COC(=O)Cc1nc2ccccc2s1  growth inhibition            -2
4  CCCCCCCCCCCCCCCCOC(=O)C[n+]1cccc(C(N)=O)c1  growth inhibition            42

Here are 4 compounds. What values of growth inhibition were reported for them?
1. O=C(O)C1C(=O)OC2CCCCC21 (configuration not stated)
2. CC(C)c1cc2c(cc1O)C(O)C1(O)CCCC(C)(C)[C@H]1CC2 (some centres not stated)
3. O=C(CC(=O)c1cccnc1)c1cccnc1
4. Cc1cc(Cl)c2c(c1)C(=O)/C(=C/c1ccc(Cl)cc1)O2

Result ::
1. -2
2. -3
3. 7
4. 13

Here are 3 compounds. What values of growth inhibition were reported for them?
1. NCCSC1(O)C(=O)c2ccccc2C1=O
2. CC1OC(C)C(O)C2=C1C(=O)c1ccccc1C2=O (configuration not stated)
3. Cc1c(C2Cc3ccccc3N2C(=O)/C=C\C(=O)O)c2ccccc2n1C (configuration not stated)

Result ::
0
23
42

###

Give growth inhibition for every item shown.
runDescription: NCI Yeast Anticancer Drug Screen. Data for the sgs1 mgt1 strain (AID 161);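 further: 0% = growth of cultures given vehicle only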
conditionParameters: S. cerevisiae sgs1 mgt1 strain, at 50.0 µM (retest, dose inferred, filed as 5.0), stronger effect = higher value
Procedure: Growth inhibition of yeast strains with defined genetic alterations is measured as a screen for potential anti-cancer activity. Selected strains with alterations in DNA damage repair or cell cycle control were exposed to compounds and growth inhibition was measured relative to vehicle treated controls. The strain used in this assay is sgs1 mgt1
About 79,000 compounds went through this panel and 15% of them were active in at least one assay; those are over-represented in the sample as a whole.
Answers are plain numbers, in %.

Below, each entry is followed by its recorded growth inhibition result.
In [3]: df
Out[3]:
                                   molecule   measuredendpoint  readoutvalue
0                           Oc1cccc2ccncc12  growth inhibition            16
1  COc1nc2nc(Cl)cc(C)c2c2ccccc12 (tested in a mixture with another compound)  growth inhibition            76
2          NNc1nc(Nc2ccccc2)nc(Nc2ccccc2)n1  growth inhibition            56
3                             Cc1cccc(C)c1O  growth inhibition            98
4  O=C(/C(=C/c1ccc(Cl)cc1)c1ccccc1)c1ccc(O)cc1  growth inhibition            94
5  COc1ccc(CNC(C#N)c2ccccc2)cc1OC (stereo not drawn)  growth inhibition            -2

Here are 7 molecules. What values of growth inhibition were reported for them?
1. COc1ccc2c(N3CCN(C(=O)C(Cl)(Cl)Cl)CC3)cc(C)nc2c1
2. O=C(CSc1nnc(-c2ccc(N=Cc3ccc(Cl)cc3)cc2)o1)Nc1ccc(Cl)cc1Cl
3. O=c1c2c(F)c(F)c(F)c(F)c2sc2nccn12
4. CCOC(=O)c1cc(NC(=O)c2cc(NC(=O)c3cc(NC(=O)c4c(-c5ccccc5)noc4C)cn3C)cn2C)cn1C
5. C=CCN1/C(=C\C=C\c2ccc3cc(C)ccc3[n+]2CC=C)C=Cc2cc(C)ccc21
6. c1ccc(-c2ccc(-c3cnc(-c4ccc(-c5ccccc5)cc4)o3)cc2)cc1
7. CC/C(Cl)=N\OC(=O)Nc1ccc(F)c(Cl)c1

Result ::
0
100
99
86
98
66
99

Here are 5 molecules. What values of growth inhibition were reported for them?
1. CN(C)CC1CCCCCCCCCCCCC(CN(C)C)C1=O (stereo not drawn)
2. CC(CN(C)C)C(=O)/C=C/c1c(Cl)cccc1Cl (stereo not drawn)
3. O=C(O)C1OC(Oc2ccc3oc4ccccc4c(=O)c3c2)C(O)C(O)C1O (stereo not drawn)
4. Nc1ccc(S(=O)(=O)NCc2nccs2)cc1
5. CN(C)C(=S)N/N=C/c1ccccn1

Result ::
1. 57
2. 94
3. 48
4. 53
5. 99

Here are 5 molecules. What values of growth inhibition were reported for them?
1. CN(C)C1=NC(N(C)C)=C2C=CC=C12
2. CSC1=NSC(c2ccccc2)=C(c2ccccc2)S1
3. CCCNC(=S)N/N=C(/C)c1nccc2ccccc12
4. CCSC1(SCC)C(=O)OC2=C(CCCC2)C1N1CCOCC1 (stereo not drawn)
5. CC1=C(C(=O)OCCO[N+](=O)[O-])C(c2cccc([N+](=O)[O-])c2)C(C(=O)OC(C)C)=C(C)N1 (stereo not drawn)

Result ::
[34, 0, 88, 18, 91]
